All values here come from patent US7241785B2.

measured_endpoint: melting point

| chemical_structure | measured_endpoint | endpoint_value |
| --- | --- | --- |
| Cc1oc(-c2ccccc2)nc1COc1ccc(Sc2nc(-c3ccccc3)c(CCC(=O)O)o2)cc1 | melting point | 136 to 137 °C |
| Cc1oc(-c2ccccc2)nc1COc1ccc(COc2cc(CCC(=O)O)n(-c3ccccc3)n2)cc1 | melting point | 154 to 155 °C |
| Cc1oc(-c2ccco2)nc1COc1ccc(Cc2nc(CCC(=O)O)c(-c3ccccc3)o2)cc1 | melting point | 154 to 155 °C |
| Cc1oc(-c2ccccc2)nc1COc1ccc(CSc2nc(CCC(=O)O)n[nH]2)cc1 | melting point | 170 to 171 °C |
| Cc1oc(-c2ccccc2)nc1COc1cc(COc2nn(C)cc2CC(=O)O)on1 | melting point | 149 to 150 °C |
| Cc1oc(-c2ccccc2)nc1COc1cccc(COc2cc(CCC(=O)O)n(-c3ccccc3)n2)c1 | melting point | 137 to 138 °C |
| COc1cc(COc2cc(CC(=O)O)n(-c3ccccc3)n2)ccc1OCc1nc(-c2ccco2)oc1C | melting point | 145 to 146 °C (dec.) |
| Cc1oc(-c2ccccc2)nc1COc1cc(COc2nn(C)cc2CC(=O)O)ccn1 | melting point | 126 to 127 °C |
| Cc1oc(-c2ccccc2)nc1COc1ccc(Cc2nc(CCC(=O)O)c(-c3ccccc3)s2)cc1 | melting point | 119 to 120 °C |
| Cc1oc(-c2ccco2)nc1COc1ccc(Cc2nc(-c3ccccc3)c(CCC(=O)O)o2)cc1 | melting point | 74 to 76 °C |
| Cc1oc(-c2ccccc2)nc1COc1ccc(CCc2oc(-c3ccccc3)nc2CC(=O)O)cc1 | melting point | 180 to 181 °C |
| COC(=O)Cc1cn(-c2ccccc2)nc1OCc1ccc(OCc2nc(-c3ccccc3)oc2C)c(OC)c1 | melting point | 107 to 108 °C |
| Cc1oc(-c2ccccc2)nc1COc1ccc(COc2nn(Cc3ccccc3)cc2CCC(=O)O)cc1 | melting point | 125 to 126 °C |
| Cc1oc(-c2ccccc2)nc1COc1ccc(COc2nn(C)cc2CC(=O)O)cn1 | melting point | 139 to 140 °C |
| Cc1oc(-c2ccccc2)nc1COc1ccc(CN(C)c2nc(-c3ccccc3)c(CCC(=O)O)s2)cc1.Cl | melting point | 106 to 108 °C |
| COc1cc(COc2nn(Cc3ccccc3)cc2CC(=O)O)ccc1OCc1nc(-c2ccccc2)oc1C | melting point | 99 to 100 °C |
| Cc1oc(-c2ccccc2)nc1COc1ccc(COc2nn(-c3ccccc3)cc2CC(=O)O)cc1 | melting point | 151 to 152 °C |
| COc1cc(COc2nn(-c3ccccc3)cc2CC(=O)N2CCOCC2)ccc1OCc1nc(-c2ccco2)oc1C | melting point | 132 to 133 °C |
| Cc1oc(-c2ccco2)nc1COc1ccc(COc2nn(C)cc2CC(=O)O)cn1 | melting point | 155 to 156 °C |
| Cc1oc(-c2ccccc2)nc1COc1ccc(COc2nn(Cc3ccccc3)cc2CC(=O)O)cn1 | melting point | 87 to 88 °C |
| Cn1cc(CC(=O)O)c(OCc2ccc(OCc3csc(-c4ccccc4)n3)nc2)n1 | melting point | 156 to 157 °C |
| COC(=O)Cc1cn(-c2ccccc2)nc1OCc1ccc(OCc2nc(-c3ccccc3)oc2C)nc1 | melting point | 96 to 97 °C |
